Target: T1, cynoBCMA-ECD-Fc (machin BCMA extracellular domain Fc fusion) (machin)
T1 construct: extracellular domain; also called soluble extracellular domain of machin BCMA
Test: ELISA, hybridoma supernatant

[
  {
    "Binder": "hybridoma antibody 102A12H6 (mAb003) (antibody, IgG1, V domains shown, murine hybridoma antibody, IgG1,κ) VH: EVQLQQSGPELVKPGASVKISCKASGYSFTGYYMNWVKQSPEKSLEWIGEINSSTGGTTYNQKFKAKATMTVDKSSNTAYMELKSLTSEDSAVYYCRYYGSDWHFDVWGTGTTVTVSS VL: QIVLTQSPALMSASPGEKVTMTCSASSSVSYMYWYQQKPRSSPKPWIYLTSSLASGVPARFSGSGSGTSYSLTISTMEAEDAATYYCQQWSSDPLTFGAGTKLELK",
    "ELISA (OD450 nm) / OD450": 3.53
  }
]
